system: c-Src; experiment: phosphorylation enrichment, bacterial display (enrichment ratio); higher = better substrate or ligand; peptides without Tyr show the background;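 note: 11-residue human phosphosite peptides and single-mutation variants displayed on the E. coli surface, counted by deep sequencing, each peptide's frequency after selection divided by its frequency in the unselected input library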;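 note: frequency after pTyr selection over input frequency; kinase dosed for 20-30% of maximal phosphorylation in three min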
Experimental Readout: phosphorylation enrichment
API note: the answer field is a bare number with no unit suffix.

Value sought: phosphorylation enrichment, system c-Src, item KQLGEYKFQNA [ALB_Y425_E420K] . Result: 0.358

Form field, phosphorylation enrichment with c-Src, item QQLVAYYSKHA [SRC_Y232] : 1.02

* * *

test system: Fer (mouse); experiment: phosphorylation enrichment, bacterial display (enrichment ratio); higher = better substrate or ligand; peptides without Tyr show the background
Criterion: phosphorylation enrichment meeting or surpassing 0.7. Met: YES. Not met: NO.

// known answers, use as guide
* WQQQSYLDSGI [CTNNB1_Y30] | NO
* NFYEYYVDDPL [GCHFR_Y48_P53L] | YES
* TGNGFYFRVFS [MYBPC3_Y1136_I1131T_YF] | NO

Is the recorded value of phosphorylation enrichment equal to or greater than 0.7 for this sequence? RGKDNYETSQL [SPP1_Y225_S224N] NO

Decide: phosphorylation enrichment of VVQGIYGFHHF [UFSP2_Y285_YF] >= 0.7? YES

Has MYDKEYYSVHN [MET_Y1234] a recorded phosphorylation enrichment greater than or equal to 0.7? YES

Is it the case that VERIGYDFIPT [CBS_Y308_G305R] has phosphorylation enrichment reaching or exceeding 0.7? NO

* * *

target: Fyn (UniProt P06241); assay: phosphorylation enrichment, bacterial display (enrichment ratio); higher = better substrate or ligand; peptides without Tyr show the background
Sequence (P06241 whole entry, looked up): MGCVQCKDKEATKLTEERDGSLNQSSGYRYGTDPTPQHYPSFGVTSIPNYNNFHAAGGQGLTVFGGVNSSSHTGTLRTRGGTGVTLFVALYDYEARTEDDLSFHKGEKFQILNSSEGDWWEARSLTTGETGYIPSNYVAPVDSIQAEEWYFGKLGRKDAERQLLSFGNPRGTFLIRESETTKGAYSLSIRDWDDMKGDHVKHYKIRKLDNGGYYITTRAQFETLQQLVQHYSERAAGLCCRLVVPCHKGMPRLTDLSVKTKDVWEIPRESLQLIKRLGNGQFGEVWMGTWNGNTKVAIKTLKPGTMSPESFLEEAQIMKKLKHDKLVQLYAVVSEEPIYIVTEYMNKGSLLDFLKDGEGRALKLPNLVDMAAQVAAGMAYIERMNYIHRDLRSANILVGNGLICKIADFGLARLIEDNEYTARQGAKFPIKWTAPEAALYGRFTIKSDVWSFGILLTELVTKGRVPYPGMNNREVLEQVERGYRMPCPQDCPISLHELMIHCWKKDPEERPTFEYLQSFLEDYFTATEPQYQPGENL
Each entry gets 0 (no) if its phosphorylation enrichment stays under 0.6, and 1 (yes) if its phosphorylation enrichment is 0.6 or above.

• GSTLSYFGLAA [P2RX7_Y343] = 0 (no)
• SSSPTYLDLPF [GLI3_Y168_P169L] = 1 (yes)
• QLRPGYIPIPV [BAG3_Y93] = 1 (yes)
• KEKLCYVAPDF [ACTA1_Y220_L223P] = 0 (no)

Turning now to a further record.
Kindly determine if phosphorylation enrichment recorded for YVSSFYHAFSG [ACTN4_Y265] is above or exactly 0.6. 1 (yes)

* * *

tested on: Fer (mouse); test: phosphorylation enrichment, bacterial display (enrichment ratio); higher = better substrate or ligand; peptides without Tyr show the background
Parameter threshold = 0.6. Response is Criterion met when phosphorylation enrichment meets or exceeds it, else Criterion not met.

Here are 5 sequences together with their reported answers.
* DVFRQYASLRG [GANAB_Y379_T383R] | Criterion not met
* NGSKAYAFVHF [PABPC5_Y147_G146A_YF] | Criterion met
* AGDGRYEVLFL [SEMA3F_Y478_A474G] | Criterion met
* DKITQYVEEVR [STX2_Y49_K54R] | Criterion not met
* LTTEAYEWEPC [ELMOD3_Y61_R66C] | Criterion met

Shift focus to the following entry.
phosphorylation enrichment >= 0.6 for QQLVAYYSKHA [SRC_Y232] ? Criterion not met

* * *

tested on: Fer (mouse); assay: phosphorylation enrichment, bacterial display (enrichment ratio); higher = better substrate or ligand; peptides without Tyr show the background
We begin with a simple list: items and their reported phosphorylation enrichment.
Answer with the value's number alone.

A selection of reference data follows.
* RSLLQYGGSAN [ANK1_Y624] | 0.8
* FSAGTYPRLEE [SYCN_Y108] | 0.464
* QAFSWYQHQRA [NDST1_Y714_R709Q_YF] | 0.863

Sure, the documented phosphorylation enrichment for LLREWYVQDPF [SIX3_Y225_L226V_YF] is 0.576

Reported phosphorylation enrichment ( VAMDDYLKNVV [LRRK2_Y707_M712V] ) = 0.405

Record HAVVDYMRRQK [ATM_Y1915_L1910H] , field phosphorylation enrichment: 0.535

Sample RRIHSYRRHLW [VHL_Y112_G114R] ; phosphorylation enrichment observed: 0.529

Documented phosphorylation enrichment of DEEPPHRGPFC [SASH1_Y551_Y551H] : 0.528

The reported phosphorylation enrichment of the sequence AQRKLYRNVML [ZNF569_Y33] was 0.373

phosphorylation enrichment reading for TEQDPSNNIVR [MMUT_Y364_Y364S] : 0.408

Query VDSAHYQLLET [DTX3L_Y385_K386Q] yields phosphorylation enrichment of 4.07

Per the record, SLDLSYYHTSS [EMD_Y181_P183H] has phosphorylation enrichment of 0.453

Quick note, phosphorylation enrichment for GGTPLYRDRQG [AGXT_Y194_M195R] landed at 0.415

According to the records, this sequence GRFCGYKSKHG [EPHA3_Y570] displays phosphorylation enrichment of 0.426

* * *

biological target: Hck (UniProt P08631); assay: phosphorylation enrichment, bacterial display (enrichment ratio); higher = better substrate or ligand; peptides without Tyr show the background
Sequence (P08631 whole entry, looked up): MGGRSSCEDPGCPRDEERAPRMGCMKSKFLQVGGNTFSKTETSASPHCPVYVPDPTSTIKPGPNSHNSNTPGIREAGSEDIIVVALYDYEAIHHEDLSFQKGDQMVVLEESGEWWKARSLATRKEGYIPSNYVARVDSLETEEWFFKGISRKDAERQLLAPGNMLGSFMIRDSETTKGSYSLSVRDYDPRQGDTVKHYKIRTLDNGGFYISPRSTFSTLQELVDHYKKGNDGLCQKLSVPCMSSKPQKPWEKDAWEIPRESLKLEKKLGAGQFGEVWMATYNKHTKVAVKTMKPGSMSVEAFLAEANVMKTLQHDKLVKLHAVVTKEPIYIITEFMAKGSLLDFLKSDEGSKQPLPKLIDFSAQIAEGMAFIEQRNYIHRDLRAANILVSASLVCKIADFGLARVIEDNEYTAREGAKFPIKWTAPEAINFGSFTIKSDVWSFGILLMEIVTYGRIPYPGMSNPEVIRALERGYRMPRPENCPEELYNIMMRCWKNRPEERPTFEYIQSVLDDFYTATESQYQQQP
Listed next: entries and their corresponding phosphorylation enrichment.
Lab note: jot the number down without any unit.

In the examples that follow, each entry is paired with its recorded phosphorylation enrichment.
* AQADIYKANFQ [IKBKG_Y308_D311N] | 0.659
* IGGHAYGDQYR [IDH1_Y135_R132G] | 0.428

Entry RKLASYQSCLL [DHX37_Y1080_R1081Q] ; assay system Hck (UniProt P08631); phosphorylation enrichment recorded at 0.665

Measured phosphorylation enrichment (Hck (UniProt P08631)), entry RETLTYAQAQG [BRD1_Y33_R38G] : 0.982

Tested system Hck (UniProt P08631); phosphorylation enrichment recorded for FCIDHYLGKEM [G6PD_Y202_R198C_YF] was 0.43

// sequence TTSQPYRCLCS [USH2A_Y534] , assay Hck (UniProt P08631), phosphorylation enrichment value: 0.523

Reported phosphorylation enrichment (Hck (UniProt P08631)) for entry KHMADYPDCKY [SOX11_Y113_Y116C] is 0.55

* * *

molecular target: Fes (UniProt P07332); test: phosphorylation enrichment, bacterial display (enrichment ratio); higher = better substrate or ligand; peptides without Tyr show the background
Sequence (P07332 whole entry, looked up): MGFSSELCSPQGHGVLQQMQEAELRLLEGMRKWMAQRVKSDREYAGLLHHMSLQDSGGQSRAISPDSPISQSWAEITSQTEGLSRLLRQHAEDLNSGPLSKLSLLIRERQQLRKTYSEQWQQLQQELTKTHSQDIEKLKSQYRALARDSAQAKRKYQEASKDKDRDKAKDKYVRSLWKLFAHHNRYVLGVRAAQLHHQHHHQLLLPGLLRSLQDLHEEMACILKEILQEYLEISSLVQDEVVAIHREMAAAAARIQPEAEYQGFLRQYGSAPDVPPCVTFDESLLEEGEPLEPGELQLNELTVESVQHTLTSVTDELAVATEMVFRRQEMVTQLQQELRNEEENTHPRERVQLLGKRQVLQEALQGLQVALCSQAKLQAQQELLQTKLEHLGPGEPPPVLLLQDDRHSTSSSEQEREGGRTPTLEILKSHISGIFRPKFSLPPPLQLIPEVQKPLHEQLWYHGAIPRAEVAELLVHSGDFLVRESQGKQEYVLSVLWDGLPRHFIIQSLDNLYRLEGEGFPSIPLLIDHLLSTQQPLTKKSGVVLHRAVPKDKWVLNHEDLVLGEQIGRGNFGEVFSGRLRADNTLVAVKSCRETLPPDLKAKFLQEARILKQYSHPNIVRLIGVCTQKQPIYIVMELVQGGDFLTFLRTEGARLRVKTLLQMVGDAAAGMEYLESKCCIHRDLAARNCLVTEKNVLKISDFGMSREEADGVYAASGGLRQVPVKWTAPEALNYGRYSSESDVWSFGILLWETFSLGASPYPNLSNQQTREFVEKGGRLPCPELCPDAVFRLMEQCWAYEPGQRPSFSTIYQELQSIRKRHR
As shown below, each of these sequences has a reported phosphorylation enrichment value.
// response body must contain only the number

- HRDSSYYWEIE [RAF1_Y340_Q335H]: 1.67

Reported phosphorylation enrichment ( PELINYHQHNF [BTK_Y361_S366F] ) = 1.25

// EFEGLYQEGGG [TMEM159_Y159] : phosphorylation enrichment value = 0.939

The value of phosphorylation enrichment measured for the sequence WQQQSYLDLGI [CTNNB1_Y30_S33L] turned out to be 0.918

Lab note: measured phosphorylation enrichment of NDLMEYPKQHG [ASS1_Y163_A164P] was 0.855

Looking up TTTQAYRVNER [PRKN_Y391_D394N] , I see its phosphorylation enrichment listed as 0.514

response.value for PLQNTYNFNVL [SLC4A1_Y553_K551N_YF] (field: phosphorylation enrichment) = 1.43

Note to self: phosphorylation enrichment recorded for KEKLCYVAPDF [ACTA1_Y220_L223P] was 0.836

phosphorylation enrichment recorded for this sequence, VIIVLYFSLWK [SLC6A2_Y249_V245I] , is 0.631

Reported phosphorylation enrichment for WNDLDYMDSRR [GAA_Y407] was 1.26

Entry under test: FGLTLYPNSRE [MEP1A_Y472_V469L] . Its phosphorylation enrichment was 1.09

phosphorylation enrichment in this record for ADARMYGVLLW [PLP1_Y207_P211L] : 1.39

For this sequence ( TRSCKYLLLSM [NF1_Y491_Y489C] ), measured phosphorylation enrichment is 0.954

What the record says about SLDLSYYHTSS [EMD_Y181_P183H] : phosphorylation enrichment is 0.951

* * *

tested on: c-Abl (mouse); experiment: phosphorylation enrichment, bacterial display (enrichment ratio); higher = better substrate or ligand; peptides without Tyr show the background
Consider the following sequences and their measured phosphorylation enrichment readings.

For reference, reported phosphorylation enrichment for FADIAYIYRHG [PAH_Y166_N167I] stands at 0.685

Just so you know, measured phosphorylation enrichment for GVLKEYVVKVL [CPS1_Y529_G530V] came out at 0.67

* * *

molecular target: EPHB1 (UniProt P54762); assay: phosphorylation enrichment, bacterial display (enrichment ratio); higher = better substrate or ligand; peptides without Tyr show the background
Sequence (P54762 whole entry, looked up): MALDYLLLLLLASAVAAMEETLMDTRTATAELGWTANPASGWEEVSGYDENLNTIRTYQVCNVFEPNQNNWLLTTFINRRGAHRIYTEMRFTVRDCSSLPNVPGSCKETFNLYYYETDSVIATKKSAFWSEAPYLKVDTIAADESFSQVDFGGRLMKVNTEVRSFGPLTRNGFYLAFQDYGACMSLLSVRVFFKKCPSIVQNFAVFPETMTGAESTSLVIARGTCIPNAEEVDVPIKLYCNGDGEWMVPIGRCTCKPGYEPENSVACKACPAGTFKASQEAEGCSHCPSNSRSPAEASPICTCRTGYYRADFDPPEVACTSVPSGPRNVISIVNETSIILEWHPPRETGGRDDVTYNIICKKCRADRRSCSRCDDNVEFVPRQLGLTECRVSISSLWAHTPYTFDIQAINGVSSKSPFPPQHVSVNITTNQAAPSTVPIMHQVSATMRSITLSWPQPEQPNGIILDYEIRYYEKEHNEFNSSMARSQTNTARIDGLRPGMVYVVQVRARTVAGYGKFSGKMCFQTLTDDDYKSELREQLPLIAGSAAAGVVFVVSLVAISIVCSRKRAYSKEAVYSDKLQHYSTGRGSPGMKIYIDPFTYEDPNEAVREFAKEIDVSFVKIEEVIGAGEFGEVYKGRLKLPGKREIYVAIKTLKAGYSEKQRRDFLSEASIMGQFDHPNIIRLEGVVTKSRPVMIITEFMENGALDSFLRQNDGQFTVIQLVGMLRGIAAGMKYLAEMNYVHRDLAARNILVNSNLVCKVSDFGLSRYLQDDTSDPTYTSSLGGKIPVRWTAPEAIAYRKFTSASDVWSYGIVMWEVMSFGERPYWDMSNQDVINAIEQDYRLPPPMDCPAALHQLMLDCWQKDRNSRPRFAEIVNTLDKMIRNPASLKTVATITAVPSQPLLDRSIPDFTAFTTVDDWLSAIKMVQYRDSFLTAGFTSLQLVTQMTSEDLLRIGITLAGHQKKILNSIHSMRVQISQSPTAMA
Each item that follows carries a reported phosphorylation enrichment.
# print the numeric value only

- PLQKTYNFNML [SLC4A1_Y553_V557M_YF]: 0.476
- KRAAIYNPVIF [RHO_Y301_S297R_YF]: 0.432
- DFDNLYYWDQD [ERBB2_Y1221_A1216D]: 4.08
- GKGGSYSQAAC [HLA-B_Y344]: 0.352
- ASLEAYCKHKY [RXRA_Y403]: 0.53

Field phosphorylation enrichment (EPHB1 (UniProt P54762)), entry QAINEYEKWLE [MAP9_Y603] : 1.67

# lookup: PARLEYYENEK [IRS1_Y46] on EPHB1 (UniProt P54762), phosphorylation enrichment = 0.613

Data origin: the supplement of paper PMC10065799
